- Measured Target: human recombinant adrenergic α2A receptor (Homo sapiens, UniProt P08913)
- Construct: expressed in transfected cells; host or cells: insect Sf9 cells
- Sequence (P08913 1-465): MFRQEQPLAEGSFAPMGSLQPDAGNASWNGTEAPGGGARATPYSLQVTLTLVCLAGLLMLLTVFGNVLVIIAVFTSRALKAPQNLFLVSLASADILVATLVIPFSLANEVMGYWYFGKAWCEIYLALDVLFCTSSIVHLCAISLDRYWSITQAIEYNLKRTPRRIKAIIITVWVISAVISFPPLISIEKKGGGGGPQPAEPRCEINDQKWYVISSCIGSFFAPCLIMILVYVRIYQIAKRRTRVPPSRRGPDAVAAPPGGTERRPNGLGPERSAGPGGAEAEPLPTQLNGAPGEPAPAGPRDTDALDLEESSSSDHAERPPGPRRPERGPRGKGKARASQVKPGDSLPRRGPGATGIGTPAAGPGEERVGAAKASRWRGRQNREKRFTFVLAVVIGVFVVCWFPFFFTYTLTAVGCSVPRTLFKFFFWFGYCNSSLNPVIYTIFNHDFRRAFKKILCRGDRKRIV
- Method: Adrenergic α2A radioligand binding ([3H]MK-912)
- Cond: percent inhibition of specific binding; compound at 1 μM; read-out: Inhibition of ligand binding, Adrenergic α2A
Give inhibition at 1 µM for every item shown.
Please give a number only; it is taken to be in %.

Asked: Kindly indicate its recorded inhibition at 1 µM. Item: C=C(Cn1c2c(c3cc(Cl)ccc31)CN(C)CC2)c1ccc(F)cc1 [Compound 128]
Given back: 99

Asked: Kindly indicate its recorded inhibition at 1 µM. Item: C=C(Cn1c2c(c3cc(Cl)ccc31)CN(C)CC2)c1ccc(C)nc1 [Compound 136]
Given back: 95

Asked: Kindly indicate its recorded inhibition at 1 µM. Item: CCCCC(O)(Cn1c2c(c3cc(Cl)ccc31)CN(C)CC2)c1ccc(F)cc1 (centres unmarked) [Compound 178]
Given back: 88

Asked: Kindly indicate its recorded inhibition at 1 µM. Item: Cc1ccc(C(O)Cn2c3c(c4cc(C)ccc42)CN(C)CC3)cc1 (racemic) [Compound 43]
Given back: 98

Asked: Kindly indicate its recorded inhibition at 1 µM. Item: CN1CCc2c(c3cc(Cl)ccc3n2C2=C(c3cccnc3)CCCC2)C1 [Compound No. 166]
Given back: 44

Asked: Kindly indicate its recorded inhibition at 1 µM. Item: C/C(=C\n1c2c(c3cc(Cl)ccc31)CN(C)CC2)c1ccc(F)cc1 [Compound 83]
Given back: 98

Asked: Kindly indicate its recorded inhibition at 1 µM. Item: C/C(=C/n1c2c(c3cc(Cl)ccc31)CN(C)CC2)c1ccccc1F [Compound 212]
Given back: 88

Asked: Kindly indicate its recorded inhibition at 1 µM. Item: Cc1ccc2c(c1)c1c(n2CC(O)(c2ccc(F)cc2)C2CCCCC2)CCN(C)C1 (centres unmarked) [Compound 171]
Given back: 83
